Test system: TIMP-1
Test Protocol: TIMP-1 ELISA on supernatants of ARPE-19 cells under hypoxia
Assay type: cell-based
Study Conditions: Homo sapiens, ARPE-19, hypoxia 24 hours, read-out: IC50 TIMP-1 expression
Measure Name: IC50 (nM)
Give bare numbers, in nM.

Lookup: Note down IC50 recorded for `C[C@@H]1O[C@@H](O[C@@H]2C=C3CC[C@@H]4[C@H](CC[C@]5(C)[C@@H](c6ccc(=O)oc6)CC[C@]45O)[C@@]3(C)CC2)[C@H](O)[C@H](O)[C@H]1O`
Found: 12.9
